Target Or Test System: alpha2B receptor (Homo sapiens)
Construct: expressed in transfected cells; host or cells: NIH-3T3 cells
Sequence (P18089 whole entry): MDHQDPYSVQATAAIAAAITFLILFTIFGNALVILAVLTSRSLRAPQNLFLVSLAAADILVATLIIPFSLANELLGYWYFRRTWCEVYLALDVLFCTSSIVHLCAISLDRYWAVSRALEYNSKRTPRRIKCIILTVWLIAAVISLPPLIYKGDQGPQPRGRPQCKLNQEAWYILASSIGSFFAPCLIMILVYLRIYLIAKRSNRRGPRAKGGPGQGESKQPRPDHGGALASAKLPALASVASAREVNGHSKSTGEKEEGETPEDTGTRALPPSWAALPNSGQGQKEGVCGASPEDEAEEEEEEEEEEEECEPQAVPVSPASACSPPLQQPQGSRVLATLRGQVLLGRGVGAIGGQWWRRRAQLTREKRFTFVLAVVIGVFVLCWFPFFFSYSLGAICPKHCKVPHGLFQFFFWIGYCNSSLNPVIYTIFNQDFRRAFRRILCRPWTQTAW
Test: Receptor Selection and Amplification Technology (RSAT) assay, alpha2B
Assay type: cell-based
Condition Notes: ratio of maximal effect of drug to maximal effect of standard full agonist brimonidine (UK14304)
Description: The RSAT assay measures a receptor-mediated loss of contact inhibition that results in selective proliferation of receptor-containing cells in a mixed population of confluent cells. The increase in cell number is assessed with an appropriate transfected marker gene such as […]-galactosidase, the activity of which can be easily measured in a 96-well format. Receptors that activate the G protein, Gq, elicit this response. […]
# maps each entry to its Alpha 2B IA (intrinsic activity)

Here is how some compounds turned out for Alpha 2B IA (intrinsic activity).
N#C/N=C(\NCCF)NC1CCc2ccc(Cl)cc21 (stereo not shown)    0.31
N#C/N=C(/NCCF)NCc1cccc(Br)c1    0.82
N#C/N=C(\NCCF)NC1CCc2cccc(F)c21 (stereo not shown)    0.65

Returns the measured Alpha 2B IA (intrinsic activity) for the input compound. Input: N#C/N=C(/NCCF)N[C@H]1CCc2ccccc21
0.92
